- Tested on: 648629-189-R-J1-PDC spheroids with HUVEC/MSC, viability;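 also: spheroids exposed to agents for seven days before reading; percent of vehicle control luminescence where 100% = DMSO treated spheroids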
- methodNotes: Anticancer human tumor 648629-189-R-J1-PDC patient-derived bladder carcinoma cell line growth inhibition [PI3K]
- measurementConditions: second compound 0.1 µM; first compound 0.0316 µM; active compounds read low
For each entry below, report its viability, T/C value.
Numbers only, in %.

### Prompt Using 648629-189-R-J1-PDC spheroids with HUVEC/MSC, viability as the test system, report measured viability, T/C of CC(C)n1nc(-c2ccc3oc(N)nc3c2)c2c(N)ncnc21 + CC(Nc1ncnc2nc[nH]c12)c1cc2cccc(Cl)c2c(=O)n1-c1ccccc1 .
### Response 69.5

### Prompt Using 648629-189-R-J1-PDC spheroids with HUVEC/MSC, viability as the test system, report measured viability, T/C of CC(C)NCC(C(=O)N1CCN(c2ncnc3c2C(C)CC3O)CC1)c1ccc(Cl)cc1 (stereo unspecified) + Cc1nc(NC(=O)N2CCCC2C(N)=O)sc1-c1ccnc(C(C)(C)C(F)(F)F)c1 .
### Response 102

### Prompt Using 648629-189-R-J1-PDC spheroids with HUVEC/MSC, viability as the test system, report measured viability, T/C of CC(=O)c1c(C)c2cnc(Nc3ccc(N4CCNCC4)cn3)nc2n(C2CCCC2)c1=O + COc1c(OCCCN2CCOCC2)ccc2c3n(c(=NC(=O)c4cnc(N)nc4)nc12)CCN3 .
### Response 70.1

### Prompt Using 648629-189-R-J1-PDC spheroids with HUVEC/MSC, viability as the test system, report measured viability, T/C of C#Cc1c(F)ccc2cc(O)cc(-c3ncc4c(N5CC6CCC(C5)N6)nc(OCC56CCCN5CC(F)C6)nc4c3F)c12 (stereo unspecified) + CC(Nc1ncnc2nc[nH]c12)c1cc2cccc(Cl)c2c(=O)n1-c1ccccc1 .
### Response 116

### Prompt Using 648629-189-R-J1-PDC spheroids with HUVEC/MSC, viability as the test system, report measured viability, T/C of CC(C)n1nc(-c2ccc3oc(N)nc3c2)c2c(N)ncnc21 + COc1c(OCCCN2CCOCC2)ccc2c3n(c(=NC(=O)c4cnc(N)nc4)nc12)CCN3 .
### Response 32.8

### Prompt Using 648629-189-R-J1-PDC spheroids with HUVEC/MSC, viability as the test system, report measured viability, T/C of Cn1nccc1Nc1nccc(-c2ccn(C(CO)c3ccc(Cl)c(F)c3)c(=O)c2)n1 (stereo unspecified) + Cc1nc(NC(=O)N2CCCC2C(N)=O)sc1-c1ccnc(C(C)(C)C(F)(F)F)c1 .
### Response 93.5

### Prompt Using 648629-189-R-J1-PDC spheroids with HUVEC/MSC, viability as the test system, report measured viability, T/C of CCN1CCN(Cc2ccc(Nc3ncc(F)c(-c4cc(F)c5nc(C)n(C(C)C)c5c4)n3)nc2)CC1 + Cc1nc(NC(=O)N2CCCC2C(N)=O)sc1-c1ccnc(C(C)(C)C(F)(F)F)c1 .
### Response 101

### Prompt Using 648629-189-R-J1-PDC spheroids with HUVEC/MSC, viability as the test system, report measured viability, T/C of Cn1ncnc1[C@H]1c2n[nH]c(=O)c3cc(F)cc(c23)N[C@@H]1c1ccc(F)cc1 + COc1c(OCCCN2CCOCC2)ccc2c3n(c(=NC(=O)c4cnc(N)nc4)nc12)CCN3 .
### Response 51.8

Each compound below has a reported value. Please supply its viability, T/C.
1. CCCS(=O)(=O)Nc1ccc(F)c(C(=O)c2c[nH]c3ncc(-c4ccc(Cl)cc4)cc23)c1F + COc1c(OCCCN2CCOCC2)ccc2c3n(c(=NC(=O)c4cnc(N)nc4)nc12)CCN3
2. C=CC(=O)N1CCN(c2nc(=O)n(-c3c(C)ccnc3C(C)C)c3nc(-c4c(O)cccc4F)c(F)cc23)C(C)C1 (stereo unspecified) + CC(Nc1ncnc2nc[nH]c12)c1cc2cccc(Cl)c2c(=O)n1-c1ccccc1
3. CC1(C)CCC(CN2CCN(c3ccc(C(=O)NS(=O)(=O)c4ccc(NCC5CCOCC5)c([N+](=O)[O-])c4)c(Oc4cnc5[nH]ccc5c4)c3)CC2)=C(c2ccc(Cl)cc2)C1 + CC(Nc1ncnc2nc[nH]c12)c1cc2cccc(Cl)c2c(=O)n1-c1ccccc1

### Response
[55.4, 102, 102]
